Sourced from patent US20180243273A1

Experimental details: Solubility and impurities of API with solubility enhancing excipients in citrate or phosphate buffer pH 4.5
Format: physicochemical
Test context: phosphate buffer, pH 4.5, aqueous with cosolvent or surfactant or cyclodextrin, thermodynamic from solid, phosphate buffer pH 4.5; 1 wt.-% SLS; 1 mg API in 100 g buffer
Quantity: solubility (µg/mL)
A number alone suffices; assume µg/mL.

Req: Input CN(C)[C@]1(c2cccc(F)c2)CC[C@]2(CC1)c1[nH]c3ccccc3c1CCN2C(=O)/C=C/c1ccccc1 , output reported solubility.
Resp: 1.68

----------
Experimental details: Solubility and impurities of API with solubility enhancing excipients in citrate or phosphate buffer pH 4.5
Type: physicochemical
Test context: citrate buffer, pH 4.5, aqueous with cosolvent or surfactant or cyclodextrin, thermodynamic from solid, citrate buffer pH 4.5; 1 wt.-% Gelucire ® 44/14; 10 mg API in 100 g buffer
Quantity: solubility (mg/mL)
Give your result in mg/mL as a bare value.

Req: Quick one: give measured solubility for CN(C)[C@]1(c2cccc(F)c2)CC[C@]2(CC1)c1[nH]c3ccccc3c1CCN2C(=O)/C=C/c1ccccc1 [API]
Resp: 0.0349
